Cited source: patent US20250042994A1

TARGET SYSTEM: T1, human CD19 on Raji cells (human, UniProt P15391 20-556)
T1 construct: whole, on cells
T1 sequence (looked up): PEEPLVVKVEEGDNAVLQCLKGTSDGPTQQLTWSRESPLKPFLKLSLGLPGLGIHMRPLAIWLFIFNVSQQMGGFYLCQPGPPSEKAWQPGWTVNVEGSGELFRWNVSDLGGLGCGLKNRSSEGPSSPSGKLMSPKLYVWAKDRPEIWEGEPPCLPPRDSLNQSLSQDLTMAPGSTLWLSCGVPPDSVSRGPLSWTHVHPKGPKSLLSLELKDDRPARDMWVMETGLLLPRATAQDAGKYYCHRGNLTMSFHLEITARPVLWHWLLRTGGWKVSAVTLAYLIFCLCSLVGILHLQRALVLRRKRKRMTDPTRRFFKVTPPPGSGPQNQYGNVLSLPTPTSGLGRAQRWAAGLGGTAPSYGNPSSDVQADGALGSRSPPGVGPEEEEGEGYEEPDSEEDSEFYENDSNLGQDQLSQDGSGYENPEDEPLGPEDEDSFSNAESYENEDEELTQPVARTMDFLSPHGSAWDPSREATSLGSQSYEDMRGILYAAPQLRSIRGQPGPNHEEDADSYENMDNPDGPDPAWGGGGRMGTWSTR
MEASUREMENT PROTOCOL: FACS on Raji cells
Description: The desired cells were scale-up cultured in a T-75 cell culture flask to the logarithmic growth phase. For the adherent cell CHO-K1, the medium was aspirated, the cells were washed 2 times with a PBS buffer, and then digested with trypsin. […] Data analysis was performed by software (FlowJo) to obtain the mean fluorescence intensity (MFI) of the cells. […]
EC50 listing for selected binders.
METRIC: EC50 (nM)

[[record]]
binder = "F3.5.1 (antibody, human IgG1, V domains shown, human-murine chimeric antibody, human IgG1) VH: QAQLQQSGPELVKPGASVKISCKASGYAFSGSWMNWVQQRPGKGLEWIGRIYPGDGDTYYNGKFKDKAILTADKSSSTAYMQLSSLTSEDSAVYFCAQLRYRYVMDYWGQGTSVTVSS VL: DIVLTQSPASLAVSLGQRATISCRASESVSIHGSHLMHWYQQKPGQPPRLLIYAASNLESGVPARFSGSGSETDFTLNIHPVEEEDAATYFCQQGIKDPYTFGGGTKLEIK"
val = 1.47

[[record]]
binder = "F5.10.6 (antibody, human IgG1, V domains shown, human-murine chimeric antibody, human IgG1) VH: DVQLQESGPGLVKPSQSLSLTCSVTDYSITSGYYWTWIRQFPGNKLEWMGYISYDGSTNYNPSLKNRFSITRDTSKNQFFLKLNSVIIEDTATYYCARDRMSTTWYFDVWGTGTTVTVSS VL: DIVLTQSPASLAVSLGQRATISCRASESVDNYGISFMHWYQQKPGQPPKLLIYRASKTESGIPARFSGSGSRTDFTLTINPVETDDVATYYCQQSNKYPRTFGGGTKVEIK"
val = 1.34

[[record]]
binder = "F3.126.15 (antibody, human IgG1, V domains shown, human-murine chimeric antibody, human IgG1) VH: QVQLQQPGAELVMPGASVKLSCKASGYTFTSYWMHWVKQRPGQGLEWIGEIDPSDSYTTYNQNFKGKATLTVDISTSTAYIQLSNLTSEDSAVYYCARLTGNYIHYWGQGTTLTVSS VL: DIVMTQSHKFMSTSVGDRVSITCKASQDVSPAVAWYQQRPGQCPKLLIFSSSYRSTGVPDRFTGSGSGTDFTFTISSVQAEDLAVYYCQQHYSLPLTFGAGTKLELK"
val = 1.18

